# credit: ChEMBL document CHEMBL1201862

- Tested on: KM12
- Experiment summary: NCI tumour cell line growth inhibition, 48 h
Active and inactive are the calls of the source. No stated cut-off is given here; in the data, active = GI50 up to about 1.1 µM and inactive = higher.
Outcomes: 1 (yes) (active), 0 (no) (inactive)

{"Compound": "Cc1sc(Cc2ccccc2)nc1-c1ccc(N)cc1", "Answer label": "0 (no)"}
{"Compound": "COc1c(C)n(CCO)ccc1=O", "Answer label": "0 (no)"}
{"Compound": "O=C(O)CCCc1cc2c(s1)-c1cccc3cccc-2c13", "Answer label": "0 (no)"}
{"Compound": "CCOc1cc2c(OCc3ccccc3)cc3c4cc(OC)c(OC)cc4c[n+](C)c3c2cc1OC", "Answer label": "0 (no)"}
{"Compound": "O=C1c2cccnc2S(=O)(=O)N1c1ccc(Oc2ccccc2)cc1", "Answer label": "0 (no)"}
{"Compound": "CC(=O)NC1C(OCc2ccccc2)OC(CO)C(O)C1OCC(=O)NC(C)C(=O)NC(CCC(=O)OCCNC(=O)c1cccc2cc3ccccc3nc12)C(N)=O (centres undefined)", "Answer label": "0 (no)"}
{"Compound": "O=C1N[C@@H](COc2ccc(/C=N/c3ccc(CCc4ccc(/N=C/c5ccc(OC[C@@H]6COC(=O)N6)cc5)cc4)cc3)cc2)CO1", "Answer label": "0 (no)"}
{"Compound": "COP(=O)(OC)C(C)(C)NC(=O)NC(F)(F)F", "Answer label": "0 (no)"}
{"Compound": "COC(=O)[C@@H]1C[C@H]([Se]c2ccccc2)CN1C(=O)OCc1ccccc1", "Answer label": "0 (no)"}
{"Compound": "CN(C)CCCNc1ccnc2cccc([N+](=O)[O-])c12", "Answer label": "0 (no)"}
{"Compound": "CC(=O)OCC12CN(C#N)C3C4COC(CC41)C1(C(=O)N(C)c4ccccc41)C32 (centres undefined)", "Answer label": "0 (no)"}
{"Compound": "COC(=O)c1c(O)ccc2c1c1c(n2-c2ccc(OC)cc2)C(=O)c2ccccc2C1=O", "Answer label": "0 (no)"}
{"Compound": "Cc1nn(C(=O)c2ccccc2O)c2c1C(c1ccc([N+](=O)[O-])cc1)SC(=N)N2 (centres undefined)", "Answer label": "0 (no)"}
{"Compound": "COc1ccc2nc(-c3cccs3)cc(C(O)CN3CCSCC3)c2c1 (centres undefined)", "Answer label": "0 (no)"}
{"Compound": "O=C1NC(N2CCCCC2)=N/C1=C\\c1ccccc1O", "Answer label": "0 (no)"}
{"Compound": "CN(C)C(=S)/N=c1\\ssc(=S)n1Cc1ccccc1", "Answer label": "1 (yes)"}
{"Compound": "O=C1/C(=C/c2ccc(Cl)cc2)COc2ccc(Br)cc21", "Answer label": "0 (no)"}
{"Compound": "O=C(c1ccc2ccccc2c1)C1S(=O)(=O)OCCOS1(=O)=O", "Answer label": "0 (no)"}
{"Compound": "COc1cc(Nc2c3ccccc3nc3ccccc23)ccc1NS(C)(=O)=O", "Answer label": "0 (no)"}
{"Compound": "O=C1C2=C(c3ccccc31)C(c1ccccc1)NC(S)=N2 (centres undefined)", "Answer label": "0 (no)"}
{"Compound": "O=CC[C@H]1C(=O)C[C@@H]2CCC[C@@H]21", "Answer label": "0 (no)"}
{"Compound": "N#CCCN(CCC#N)c1ccc(/C=C2\\N=C(c3cc([N+](=O)[O-])ccc3Cl)OC2=O)cc1", "Answer label": "0 (no)"}
{"Compound": "Nc1nc(S)c2c(N)n[nH]c2c1C(=O)Nc1ccccc1", "Answer label": "0 (no)"}
{"Compound": "CC12CCC(/C(=N/c3ccc([N+](=O)[O-])cc3)C1=O)C2(C)C (centres undefined)", "Answer label": "0 (no)"}
{"Compound": "COC(=O)C(Cc1ccccc1I)C1=CCC2(CC1)OCCO2 (centres undefined)", "Answer label": "0 (no)"}
{"Compound": "Fc1ccc(C2(CCCN3CCc4[nH]c5cc(F)ccc5c4C3)OCCO2)cc1", "Answer label": "0 (no)"}
{"Compound": "C=CCC(CC=O)(C(=O)OCC)C(=O)OCC", "Answer label": "0 (no)"}
{"Compound": "Cc1nnc2c3nnc(C)n3c3ccccc3n12", "Answer label": "0 (no)"}
{"Compound": "CC1CC/C(=C\\c2ccc(Cl)cc2)c2nc(N)c(C#N)c(-c3ccc(Cl)cc3)c21 (centres undefined)", "Answer label": "0 (no)"}
{"Compound": "Cc1cc(O)nc(NNC(C#N)c2cccc([N+](=O)[O-])c2)n1 (centres undefined)", "Answer label": "0 (no)"}
{"Compound": "COC12C=CC(CC1)c1c(O)ccc(O)c12 (centres undefined)", "Answer label": "0 (no)"}
{"Compound": "COc1cc(CCNC2=CC(=O)c3cccnc3C2=O)ccc1O", "Answer label": "0 (no)"}
{"Compound": "FC(F)(F)C1(c2ccccc2)SCc2nc3ccccc3n21 (centres undefined)", "Answer label": "0 (no)"}
{"Compound": "Cc1ccc(NNc2cc(=O)[nH]c(=O)[nH]2)cc1Cl", "Answer label": "0 (no)"}
{"Compound": "COc1cc2oc(=O)cc(C)c2cc1O", "Answer label": "0 (no)"}
{"Compound": "FC1(F)ON2CCc3ccccc3C2[C@H]1c1ccccc1 (some centres undefined)", "Answer label": "0 (no)"}
{"Compound": "COc1ccc(-c2c3c(cc4cc5c(cc24)OCO5)C(=O)OC3)cc1OC", "Answer label": "0 (no)"}
{"Compound": "NC(=S)N/N=C/c1nccc2ccccc12", "Answer label": "1 (yes)"}
{"Compound": "O=C1c2ccccc2C(=O)N1[C@@H](Cc1ccccc1)C(=O)n1cccc1CO", "Answer label": "0 (no)"}
{"Compound": "N[C@@H](Cc1ccc2oc3cc(=O)c4ccccc4c-3nc2c1)C(=O)O", "Answer label": "0 (no)"}
{"Compound": "O=c1cc(-c2ccccc2)[nH]c2cc(Cl)cc(Cl)c12", "Answer label": "0 (no)"}
{"Compound": "Brc1ccc(C[P+]2(c3ccccc3)CCCCC2)cc1.[O-][Cl+3]([O-])([O-])[O-]", "Answer label": "0 (no)"}
{"Compound": "O=C1C=C[C@@H](COC2OC(CO)C(O)C(O)C2O)O1 (some centres undefined)", "Answer label": "0 (no)"}
{"Compound": "COc1cc(/C=C/C(=O)N[C@@H]2C(=O)N3[C@@H]2SC(C)(C)[C@@H]3C(=O)O)cc(OC)c1OC", "Answer label": "0 (no)"}

====

- Tested on: MOLT-4
- Experiment summary: NCI tumour cell line growth inhibition, 48 h
The source made the active and inactive calls. Cut-off read from the data, not from the text of the source: active = GI50 up to about 1.1 µM and inactive = higher.
Classes used: active, inactive

{"Molecule": "N#CCCN(CCC#N)c1ccc(/C=C2\\N=C(c3cc([N+](=O)[O-])ccc3Cl)OC2=O)cc1", "System name": "MOLT-4", "Answer label": "inactive"}
{"Molecule": "COC(=O)C1CC(C(=O)OC)c2nc3cc(C)c(C)cc3nc21 (centres undefined)", "System name": "MOLT-4", "Answer label": "inactive"}
{"Molecule": "CN(C)CCCNc1ccc2nnn3c4ccc(OC(=O)c5ccccc5)cc4c(=O)c1c23", "System name": "MOLT-4", "Answer label": "active"}
{"Molecule": "O=[N+]([O-])c1ccc(C2=Nn3c(nnc3-c3ccc(Cl)cc3)SC2)o1", "System name": "MOLT-4", "Answer label": "inactive"}
{"Molecule": "C=C(C)C1CC2(C)C(C)CC(O)CC2C(OC(=O)C=C(C)C)C1O (centres undefined)", "System name": "MOLT-4", "Answer label": "inactive"}
{"Molecule": "CCOC(=O)O/N=C1/C(=C2/C(=O)Nc3ccccc32)Nc2ccccc21", "System name": "MOLT-4", "Answer label": "inactive"}
{"Molecule": "Cc1csc2[n+]1C(=O)/C(=C\\c1ccc([N+](=O)[O-])cc1)S2", "System name": "MOLT-4", "Answer label": "inactive"}
{"Molecule": "C=C1C(=O)C=C[C@]2(C)CC[C@H]3C(=C)C(=O)O[C@@H]3[C@@H]12", "System name": "MOLT-4", "Answer label": "active"}
{"Molecule": "CC1(C)O[C@H]([C@H](O)c2nnc3ccc(Cl)nn23)[C@@H]([C@H]2COC(C)(C)O2)O1", "System name": "MOLT-4", "Answer label": "inactive"}

====

GI50 values by entry
- Tested on: TK-10
- Experiment summary: NCI tumour cell line growth inhibition, 48 h
Activity calls are given as the source filed them. Cut-off read from the data, not from the text of the source: active = GI50 up to about 1.1 µM and inactive = higher.

{"Molecule": "Cc1cc(NCCCCCCCNc2cc(C)nc3cc([N+](=O)[O-])ccc23)c2ccc([N+](=O)[O-])cc2n1", "System name": "TK-10", "GI50": "17.7 µM (inactive)"}
{"Molecule": "COc1cc(/C=C2\\C(=O)N(C(=O)Cc3ccccc3)N=C2C)ccc1O", "System name": "TK-10", "GI50": "> 100 µM (inactive)"}
{"Molecule": "CC1CC(=O)NC2CC1C2(C)C (stereo not given)", "System name": "TK-10", "GI50": "> 100 µM (inactive)"}
{"Molecule": "CN(C)CCCNc1ccnc2cccc([N+](=O)[O-])c12", "System name": "TK-10", "GI50": "15.7 µM (inactive)"}
{"Molecule": "[O-][Cl+3]([O-])([O-])[O-].c1ccc(-c2[o+]c(-c3ccccc3)c(-c3ccccc3)c(-c3ccccc3)c2-c2ccccc2)cc1", "System name": "TK-10", "GI50": "> 100 µM (inactive)"}
{"Molecule": "C[Si]1(C)C(c2ccccc2)=CC2C(c3ccccc3)(c3ccccc3)OC21c1ccccc1 (stereo not given)", "System name": "TK-10", "GI50": "> 100 µM (inactive)"}
{"Molecule": "c1cnc2c(c1)-n1cccc1C1(CCSCC1)NN2", "System name": "TK-10", "GI50": "42.6 µM (inactive)"}
{"Molecule": "CCOC(=O)C(Cc1ccc(O)cc1)Nc1nc(=O)c2c(=O)oc(Cl)cc2o1 (stereo not given)", "System name": "TK-10", "GI50": "6.58 µM (inactive)"}
{"Molecule": "CC(=O)Oc1cc(OC(C)=O)c(OC(C)=O)c2c1CC1C(=O)C3(CCc4ccccc43)C(=O)C1C2 (stereo not given)", "System name": "TK-10", "GI50": "17.4 µM (inactive)"}
{"Molecule": "Cn1c2cc(Cl)ccc2c2ccc3c(c21)C(=O)C=CC3=O", "System name": "TK-10", "GI50": "26.9 µM (inactive)"}
